Hey, just so you know, these numbers are from ChEMBL document CHEMBL1201862.

GI50 overview
Tested on: RXF 393
Test: NCI tumour cell line growth inhibition, 48 h
Active and inactive are the calls of the source. Cut-off read from the data, not from the text of the source: active = GI50 up to about 1.1 µM and inactive = higher.

Some solved cases for reference:
CC(=O)OC1COC(Nc2nc(NCc3ccccc3)n(C)c(=O)c2N=O)C(OC(C)=O)C1OC(C)=O (stereo not drawn): > 10 µM (inactive)
Cn1ccc(C(=O)NCCN(CCNC(=O)c2ccn(C)c(=O)c2O)CCNC(=O)c2ccn(C)c(=O)c2O)c(O)c1=O: > 100 µM (inactive)
O=[N+]([O-])c1ccc(/C=N/Nc2nnc3c4ccccc4c4ncccc4c3n2)o1: > 10 µM (inactive)
COc1ccc(CC(=O)NCCc2ccc(OC)c(OC)c2OC)cc1: > 100 µM (inactive)
CCO/C=C1\N=C(c2ccccc2Br)OC1=O: > 100 µM (inactive)

Exercise: Reported GI50, compound `O=C(NC/C(Cl)=C/Cl)Nc1cccc2c1CCCC2` : ____
Solution: > 100 µM (inactive)

Exercise: Follow-up item: `Cn1c2c([N+](=O)[O-])cccc2c(=O)c2c(O)cc3c(c21)C=CC(C)(C)O3`
Solution: 18.1 µM (inactive)

Exercise: Follow-up item: `C#CCN(C(=O)C(F)(F)F)c1ccc(C(=O)c2ccc(N(CC#C)C(=O)C(F)(F)F)cc2)cc1`
Solution: 35.3 µM (inactive)

Exercise: Follow-up item: Cc1cccc(NC(=O)C(=O)C(C(=O)c2ccc3ccccc3c2)C2OC(=O)c3ccccc32)c1C (stereo not drawn)
Solution: 2.39 µM (inactive)

Exercise: Follow-up item: `Cn1ccc2c(C(=O)c3ccccc3)cccc2c1=O`
Solution: 47.5 µM (inactive)

###

Tested on: SN12C
Test: NCI tumour cell line growth inhibition, 48 h
Activity calls are given as the source filed them. No stated cut-off is given here; in the data, active = GI50 up to about 1.1 µM and inactive = higher.
Pick one and only one: active, inactive

Worked examples follow.
N#CC(C#N)=C(N)/C(C#N)=C/c1ccc2[nH]ccc2c1: inactive
O=[N+]([O-])c1cc(C2(N3CCCCC3)CCCCC2)sc1Br: inactive

Exercise: // outcome(item) with item = `CC(C)=CC(=O)c1[nH]c2ccccc2c1CC(=O)NCCc1cncn1C`
Solution: inactive

Exercise: Follow-up item: CC1(C)CC(=O)C2=C(C1)C(c1ccccc1Cl)C1C(=O)CC(C)(C)CC1(O)O2 (centres undefined)
Solution: inactive

Exercise: Follow-up item: `Cc1cc2nc3[nH]nc(N)c3nc2cc1C`
Solution: inactive

Exercise: Follow-up item: `C(/C=N/c1ccccc1)=C(/Nc1ccccc1)C12CC3CC(CC(C3)C1)C2`
Solution: inactive

Exercise: Follow-up item: Cc1cc(S(=O)(=O)Nc2nc(N)nc(N3N=CCC3C)n2)c(S)cc1Cl (centres undefined)
Solution: inactive

###

Test system: ACHN
Assay: NCI tumour cell line growth inhibition, 48 h
Active and inactive are the calls of the source. Rule as the data show it: active = GI50 up to about 1.1 µM and inactive = higher.
GI50 overview

Exercise: Reported GI50, compound `O=C1CN(c2ccc(Cl)cc2)C(=O)CN1CCN1CC(=O)N(c2ccc(Cl)cc2)CC1=O` : ____
Solution: > 100 µM (inactive)

Exercise: Follow-up item: OC12c3ccccc3C1CCCCCC21OCCCO1 (stereo not drawn)
Solution: > 100 µM (inactive)

Exercise: Follow-up item: `Cn1ccc2c(C(=O)c3ccccc3)cccc2c1=O`
Solution: 85.9 µM (inactive)

###

System: DLD-1
Experiment: NCI tumour cell line growth inhibition, 48 h
Calls of active or inactive are those of the source. Rule as the data show it: active = GI50 up to about 1.1 µM and inactive = higher.
Pick one and only one: yes for active, no for inactive

O=c1[nH]c(=O)n([C@@H]2O[C@H](CO)[C@@H](O)[C@H]2O)cc1F: yes
Cc1cccc(Cl)c1NC(=O)c1cccc([N+](=O)[O-])c1O: no
O=C(NCCNCCO)N/N=C/c1ccccc1: no
CC(C)NC(C)Cc1ccccc1 (stereo unspecified): no
COc1ccc(OC)c2c3c(ccc12)C(c1ccccc1)OC3=O (stereo unspecified): no

Exercise: // outcome(item) with item = `COc1cc(/C=C\c2ccccn2)cc(OC)c1OC`
Solution: no

Exercise: Follow-up item: `CCC(=O)N/N=C(\C=C\c1cccc(O)c1)c1sc(Nc2ccc(C)cc2[N+](=O)[O-])nc1C`
Solution: no

Exercise: Follow-up item: `O=[As](O)(O)c1cc(/N=N/c2ccc(-c3ccc(/N=N/c4cc([As](=O)(O)O)c(O)cc4O)cc3)cc2)c(O)cc1O`
Solution: no

###

Tested on: SW-620
Test: NCI tumour cell line growth inhibition, 48 h
The source made the active and inactive calls. No stated cut-off is given here; in the data, active = GI50 up to about 1.1 µM and inactive = higher.
Pick one and only one: 1 (yes) for active, 0 (no) for inactive

Exercise: // outcome(item) with item = `COC(=O)c1c2n(c3ccccc13)C[C@H]1OC(C)(C)O[C@@H]21`
Solution: 0 (no)

###

System: M14
Assay: NCI tumour cell line growth inhibition, 48 h
The source made the active and inactive calls. Rule as the data show it: active = GI50 up to about 1.1 µM and inactive = higher.
Pick one and only one: TRUE (active), FALSE (inactive)

CCOC(=O)c1ccc(OCc2nc3cc(C(F)(F)F)ccc3nc2-c2ccccc2)cc1: FALSE
Cn1c(=O)c2[nH]c(CCC(=O)O)nc2n(C)c1=O: FALSE
COc1ccccc1/N=N/C(C(=O)c1ccccc1)C(=O)c1ccccc1: FALSE
CO[C@@]12C[C@H](CNC(=O)c3ccc[nH]3)O[C@@H]1NC(=O)N2: FALSE
Nc1ncnc2c1ncn2C=C=CCO: FALSE

Exercise: // outcome(item) with item = `Cn1ccc2c(C(=O)c3ccccc3)cccc2c1=O`
Solution: FALSE

Exercise: Follow-up item: CCOc1ccc(NC(=O)CC2SC(Nc3ccc(C)cc3C)=NC2=O)cc1 (centres undefined)
Solution: FALSE

Exercise: Follow-up item: CCOc1ccccc1NC(=O)C(=O)C1C(=O)Nc2ccccc2[S+]1[O-] (centres undefined)
Solution: FALSE

Exercise: Follow-up item: CC(=O)O[C@H]1CC[C@@]2(C)C(=C/C(=N\[N+](=O)[O-])[C@H]3C4CCC([C@H](C)CCCC(C)C)[C@@]4(C)CCC32)C1 (some centres undefined)
Solution: FALSE

Exercise: Follow-up item: `CN(C)[C@@H]1C(O)=C(C(=O)NCNCCCC(=O)O)C(=O)[C@@]2(O)C(O)=C3C(=O)c4c(O)cccc4[C@@](C)(O)[C@H]3C[C@@H]12`
Solution: FALSE

Exercise: Follow-up item: `CO[C@H]1C[C@H](O[C@H]2CC[C@]3(C=O)[C@H]4CC[C@]5(C)[C@@H](C6=CC(=O)OC6)CC[C@]5(O)[C@@H]4CC[C@]3(O)C2)O[C@H](C)[C@H]1O[C@@H]1O[C@H](CO[C@@H]2O[C@H](CO)[C@@H](O)[C@H](O)[C@H]2O)[C@@H](O)[C@H](O)[C@H]1O`
Solution: TRUE

Exercise: Follow-up item: CCC1C(c2ccccc2O)c2cc3c(cc2OC1N1CCOCC1)OCO3 (centres undefined)
Solution: FALSE

Exercise: Follow-up item: `COc1ccc(/C=C/c2cnccn2)cc1OC`
Solution: FALSE

Exercise: Follow-up item: `O=C1CN(c2ccc(Cl)cc2)C(=O)CN1CCN1CC(=O)N(c2ccc(Cl)cc2)CC1=O`
Solution: FALSE

###

Tested on: K562
Assay: NCI tumour cell line growth inhibition, 48 h
Active and inactive are the calls of the source. No stated cut-off is given here; in the data, active = GI50 up to about 1.1 µM and inactive = higher.
GI50 overview

Some solved cases for reference:
NCCCCN(CCCN)Cc1ccccc1: > 100 µM (inactive)
O=[N+]([O-])c1ccc(/C=N/C2CCCCC2)cc1: > 100 µM (inactive)
CCOC(=O)[C@H](CCCNC(=O)OC(C)(C)C)NCc1ccc(OC)c(OC)c1: > 100 µM (inactive)
CCN(CC)CCN(C(=O)c1ccc(F)cc1)c1ccccc1N: > 10 µM (inactive)
C[C@H]1CC[C@@H]2[C@@H](C)[C@H]3[C@H](C[C@H]4[C@@H]5CC=C6C[C@@H](O)CC[C@]6(C)[C@H]5C[C@H](O)[C@]34C)N2C1: > 100 µM (inactive)

Exercise: Reported GI50, compound Cc1c2cc[n+](C)cc2c(C)c2c1[nH]c1ccc(O)cc12 [ELLIPTINIUM ACETATE] : ____
Solution: 16.9 µM (inactive)

Exercise: Follow-up item: `CCOC(=O)c1ccc(OCc2nc3cc(C(F)(F)F)ccc3nc2-c2ccccc2)cc1`
Solution: 74.3 µM (inactive)

Exercise: Follow-up item: Cc1cccc(NC(=O)C(=O)C(C(=O)c2ccc3ccccc3c2)C2OC(=O)c3ccccc32)c1C (centres undefined)
Solution: 15.7 µM (inactive)

###

GI50 overview
Tested on: SW-620
Experiment: NCI tumour cell line growth inhibition, 48 h
The source made the active and inactive calls. Cut-off read from the data, not from the text of the source: active = GI50 up to about 1.1 µM and inactive = higher.

Some solved cases for reference:
Nc1c2c(nc3ccccc13)-c1ccccc1CC2: 3.15 µM (inactive)
C=C=C(C)C(=O)N(C(C)C)C(C)C: > 100 µM (inactive)

Please examine the following record next.
Exercise: Reported GI50, compound `NC(=S)N/C=C1\C(=O)Oc2ccccc2C1=O` : ____
Solution: 75.5 µM (inactive)
